test-system: Human CaV2.2 channels (Homo sapiens, UniProt Q00975)
Construct: expressed in transfected cells; Kir2.3 also stably co-expressed
Sequence (Q00975 whole entry): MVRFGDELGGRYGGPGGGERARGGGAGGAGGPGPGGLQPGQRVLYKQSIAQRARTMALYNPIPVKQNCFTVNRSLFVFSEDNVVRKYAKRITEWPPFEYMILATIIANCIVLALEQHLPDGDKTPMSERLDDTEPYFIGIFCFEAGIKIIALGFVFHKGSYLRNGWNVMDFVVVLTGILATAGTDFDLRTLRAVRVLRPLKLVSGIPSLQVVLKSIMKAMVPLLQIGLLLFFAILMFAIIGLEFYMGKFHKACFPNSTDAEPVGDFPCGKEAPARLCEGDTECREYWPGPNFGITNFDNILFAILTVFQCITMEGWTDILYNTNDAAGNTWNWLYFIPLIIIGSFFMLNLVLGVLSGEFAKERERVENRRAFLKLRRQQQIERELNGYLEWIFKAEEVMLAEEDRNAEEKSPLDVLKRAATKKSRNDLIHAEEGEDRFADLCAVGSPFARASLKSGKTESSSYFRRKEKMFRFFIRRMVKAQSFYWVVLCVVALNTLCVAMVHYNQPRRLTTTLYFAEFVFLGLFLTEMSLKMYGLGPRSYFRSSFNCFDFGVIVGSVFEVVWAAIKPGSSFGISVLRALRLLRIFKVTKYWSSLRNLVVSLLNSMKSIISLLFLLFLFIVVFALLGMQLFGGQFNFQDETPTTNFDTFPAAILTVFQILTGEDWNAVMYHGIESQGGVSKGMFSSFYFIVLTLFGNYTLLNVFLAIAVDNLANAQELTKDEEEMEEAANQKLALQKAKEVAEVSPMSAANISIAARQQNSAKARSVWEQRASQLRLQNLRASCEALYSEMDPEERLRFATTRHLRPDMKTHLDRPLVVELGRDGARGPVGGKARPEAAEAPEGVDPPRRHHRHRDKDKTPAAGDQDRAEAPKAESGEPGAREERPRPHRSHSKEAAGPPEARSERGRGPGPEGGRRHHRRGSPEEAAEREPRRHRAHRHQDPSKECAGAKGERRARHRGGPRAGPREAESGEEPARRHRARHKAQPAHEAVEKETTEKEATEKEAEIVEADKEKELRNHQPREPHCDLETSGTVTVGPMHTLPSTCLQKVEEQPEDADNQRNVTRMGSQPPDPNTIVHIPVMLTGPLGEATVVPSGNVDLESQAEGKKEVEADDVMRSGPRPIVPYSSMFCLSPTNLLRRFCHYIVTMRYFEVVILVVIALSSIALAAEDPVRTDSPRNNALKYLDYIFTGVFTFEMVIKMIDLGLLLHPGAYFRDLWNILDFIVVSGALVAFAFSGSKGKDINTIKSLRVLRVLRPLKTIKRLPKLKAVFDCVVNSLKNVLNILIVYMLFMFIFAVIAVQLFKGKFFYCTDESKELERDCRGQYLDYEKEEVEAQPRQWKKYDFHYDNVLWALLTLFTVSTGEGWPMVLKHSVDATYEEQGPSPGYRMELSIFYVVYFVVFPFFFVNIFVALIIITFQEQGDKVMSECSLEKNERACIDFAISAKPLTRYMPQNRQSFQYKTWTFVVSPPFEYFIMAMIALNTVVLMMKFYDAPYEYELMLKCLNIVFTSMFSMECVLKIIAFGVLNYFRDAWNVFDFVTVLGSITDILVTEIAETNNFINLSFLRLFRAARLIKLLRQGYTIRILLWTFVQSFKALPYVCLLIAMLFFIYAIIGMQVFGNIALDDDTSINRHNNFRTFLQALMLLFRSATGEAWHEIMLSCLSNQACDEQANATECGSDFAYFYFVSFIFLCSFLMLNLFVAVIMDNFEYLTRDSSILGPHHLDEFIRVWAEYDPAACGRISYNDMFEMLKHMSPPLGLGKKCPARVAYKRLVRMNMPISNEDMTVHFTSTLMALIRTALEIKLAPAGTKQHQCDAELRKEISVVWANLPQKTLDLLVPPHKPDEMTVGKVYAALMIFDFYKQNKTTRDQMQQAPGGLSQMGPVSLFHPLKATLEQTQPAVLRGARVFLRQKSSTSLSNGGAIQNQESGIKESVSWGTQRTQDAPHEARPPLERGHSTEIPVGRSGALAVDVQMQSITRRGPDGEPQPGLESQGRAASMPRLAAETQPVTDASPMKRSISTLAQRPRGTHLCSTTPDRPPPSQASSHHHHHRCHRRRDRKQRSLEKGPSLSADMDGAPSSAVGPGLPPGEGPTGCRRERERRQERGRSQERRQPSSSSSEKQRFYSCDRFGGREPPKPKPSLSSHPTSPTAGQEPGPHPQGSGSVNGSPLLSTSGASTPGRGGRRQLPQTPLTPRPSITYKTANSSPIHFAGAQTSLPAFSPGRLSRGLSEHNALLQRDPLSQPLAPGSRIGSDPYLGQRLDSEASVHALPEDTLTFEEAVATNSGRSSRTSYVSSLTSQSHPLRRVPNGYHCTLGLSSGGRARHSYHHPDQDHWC
assay-summary: Fluorescence assay for CaV2.2 channels using potassium depolarization to induce channel opening (FLIPR, Fluo 4)
Type: cell-based
run-parameters: HEK293, 3 μM test compound, 30 mM KCl assay buffer (inactivated channel state), HEK293 cells; read-out: Activity Category: %-Inhib (CaV2.2) @3 μM @30 mM KCl
Please provide measured inhibition at 3 µM for the entries that follow.

// worked examples, inhibition at 3 µM included
| compound | inhibition at 3 µM |
| --- | --- |
| CC1(S(=O)(=O)c2cccc(C(F)(F)F)c2)CCOC(COc2ccc(S(C)(=O)=O)c(F)c2)C1 (single isomer, unassigned) [SC-150] | 75 to 95% |
| CC1(S(=O)(=O)c2cccc(C3CC3)c2)CCOC(c2ccc(S(C)(=O)=O)cc2F)C1 (stereo not drawn) [SC-512] | 75 to 95% |
| CCC1(S(=O)(=O)c2cccc(C(F)(F)F)c2)CCOC(C2CC2)C1 (stereo not drawn) [SC-306] | 40 to 75% |
| CC1(S(=O)(=O)c2cccc(OC(F)(F)F)c2)CCOC(c2ccc(Cl)cc2)C1 (racemic) [SC-315] | > 95% |
| CC1(S(=O)(=O)c2cccc(OC(F)(F)F)c2)CCOC(c2ccc(S(C)(=O)=O)cc2F)C1 (stereo not drawn) [SC-502] | > 95% |

Quick request: inhibition at 3 µM for each listed item, please.
1. CC1(S(=O)(=O)c2cccc(C(F)(F)F)c2)CCOC(c2ccc(S(C)(=O)=O)cc2C(F)(F)F)C1 (stereo not drawn) [SC-255]
2. CC1(S(=O)(=O)c2cccc(C(F)(F)F)c2)CCOC(COc2ccc(S(C)(=O)=O)cc2F)C1 (single isomer, unassigned) [SC-148]
3. CC1(S(=O)(=O)c2cccc(OC(F)(F)F)c2)CCOC(c2ccc(S(C)(=O)=O)c(F)c2)C1 (stereo not drawn) [SC-265]
4. CC1(S(=O)(=O)c2cccc(C(F)F)c2)CCOC(c2ccc(S(C)(=O)=O)cc2F)C1 (racemic) [SC-508]
5. CC1(S(=O)(=O)c2cccc(OC(F)(F)F)c2)CCOC(c2ccc(S(C)(=O)=O)cc2F)C1 (racemic) [SC-504]
6. CC1(S(=O)(=O)c2cccc(C(F)(F)F)c2)CCOC(c2ccc(S(C)(=O)=O)c(C(F)(F)F)c2)C1 (stereo not drawn) [SC-235]
7. CC1(S(=O)(=O)c2cccc(C(F)(F)F)c2)CCOC(c2ccc(C(F)(F)F)cc2S(C)(=O)=O)C1 (stereo not drawn) [SC-232]
8. CC1(S(=O)(=O)c2cccc(C(F)(F)F)c2)CCOC(c2ccc(S(C)(=O)=O)cc2C#N)C1 (stereo not drawn) [SC-275]

OUT:
1: > 95%; 2: 75 to 95%; 3: 75 to 95%; 4: 75 to 95%; 5: > 95%; 6: > 95%; 7: > 95%; 8: 75 to 95%

Quick request: inhibition at 3 µM for each listed item, please.
1. CC1(S(=O)(=O)c2cccc(C(F)(F)F)c2)CCOC(c2ccc(S(C)(=O)=O)c(F)c2)C1 (stereo not drawn) [SC-208]
2. CC1(S(=O)(=O)c2cccc(C(F)(F)F)c2)CCOC(c2cc(C#N)cc(S(C)(=O)=O)c2)C1 (stereo not drawn) [SC-257]

OUT:
1: > 95%; 2: 75 to 95%

----------
test-system: Human CaV2.2 channels (Homo sapiens, UniProt Q00975)
Construct: expressed in transfected cells; Kir2.3 also stably co-expressed
assay-summary: Fluorescence assay for CaV2.2 channels using potassium depolarization to induce channel opening (FLIPR, Fluo 4)
Format: cell-based
run-parameters: 3 μM test compound, 30 mM KCl assay buffer (inactivated channel state), HEK293 cells
reported-property: Activity Category: %-Inhib (CaV2.2) @3 μM @30 mM KCl

| compound | observed |
| --- | --- |
| CN(C)CC1(S(=O)(=O)c2cccc(C(F)(F)F)c2)CCOC(c2ccc(Cl)cc2)C1 (centres unmarked) [SC-214] | A (%-Inhibition >95%) |
| CC1(S(=O)(=O)c2cccc(C(F)(F)F)c2)CCOC(c2cc(F)cc(S(C)(=O)=O)c2)C1 (centres unmarked) | A (%-Inhibition >95%) |
| CC1(S(=O)(=O)c2cccc(C(F)(F)F)c2)CCOC(c2cc(F)ccc2S(C)(=O)=O)C1 (centres unmarked) | A (%-Inhibition >95%) |

----------
test-system: Human CaV2.2 channels (Homo sapiens)
Construct: expressed in transfected cells; Kir2.3 also stably co-expressed
assay-summary: Fluorescence assay for CaV2.2 channels using potassium depolarization to induce channel opening (FLIPR, Fluo 4)
Type: cell-based
run-parameters: HEK293, 3 μM test compound, 30 mM KCl assay buffer (inactivated channel state), HEK293 cells; read-out: Activity Category: %-Inhib (CaV2.2) @3 μM @30 mM KCl
Please provide measured inhibition at 3 µM for the entries that follow.

| compound | inhibition at 3 µM |
| --- | --- |
| CC1(S(=O)(=O)c2cccc(C(F)(F)F)c2)CCOCC1c1ccc(Cl)cc1 (stereo not drawn) [SC-120] | 75 to 95% |
| CC1(S(=O)(=O)c2cccc(C(F)(F)F)c2)CCOC(c2cc(F)cc(S(C)(=O)=O)c2)C1 (stereo not drawn) [SC-296] | 75 to 95% |
| CC1(S(=O)(=O)c2cc(F)cc(C(F)(F)F)c2)CCOC(c2ccc(S(C)(=O)=O)cc2F)C1 (racemic) [SC-515] | > 95% |
| CC1(S(=O)(=O)c2cccc(C(F)(F)F)c2)CCOC(c2cc(Cl)cc(S(C)(=O)=O)c2)C1 (stereo not drawn) [SC-243] | > 95% |
| Cc1ccc(C2CC(C)(S(=O)(=O)c3cccc(C(F)(F)F)c3)CCO2)cc1S(C)(=O)=O (stereo not drawn) [SC-210] | > 95% |
| CC1(S(=O)(=O)c2cccc(C(F)(F)F)c2)CCOC(c2ccc(C(F)(F)F)c(S(C)(=O)=O)c2)C1 (stereo not drawn) [SC-249] | > 95% |

Quick request: inhibition at 3 µM for each listed item, please.
1. Cc1nc2cc(C3CC(C)(S(=O)(=O)c4cccc(C(F)(F)F)c4)CCO3)ccc2o1 (stereo not drawn) [SC-279]
2. CC1(S(=O)(=O)c2cccc(OC(F)F)c2)CCOC(c2ccc(S(C)(=O)=O)cc2F)C1 (racemic) [SC-520]
3. CC1(S(=O)(=O)c2cccc(C(F)(F)F)c2)CCOC(c2ccc(-n3cncn3)cc2)C1 (single isomer, unassigned) [SC-134]
4. CC(C)Oc1cccc(S(=O)(=O)C2(C)CCOC(c3ccc(S(C)(=O)=O)cc3F)C2)c1 (racemic) [SC-511]
5. CC1(S(=O)(=O)c2cccc(C(F)(F)F)c2)CCOC(c2cc(S(C)(=O)=O)ccc2F)C1 (stereo not drawn) [SC-294]
6. CC1(S(=O)(=O)c2cccc(C(F)(F)F)c2)CCOC(c2cccc(S(C)(=O)=O)c2)C1 (stereo not drawn) [SC-220]
7. CC(C)c1cccc(S(=O)(=O)C2(C)CCOC(c3ccc(S(C)(=O)=O)cc3F)C2)c1 (racemic) [SC-505]

OUT:
1. 75 to 95%
2. 75 to 95%
3. 75 to 95%
4. 75 to 95%
5. 75 to 95%
6. 75 to 95%
7. > 95%

Quick request: inhibition at 3 µM for each listed item, please.
1. CC1(S(=O)(=O)c2cccc(C(F)(F)F)c2)CCOC(c2ccc(F)c(Cl)c2)C1 (stereo not drawn) [SC-228]
2. CC1(S(=O)(=O)c2cc(F)cc(C(F)(F)F)c2)CCOC(c2ccc(S(C)(=O)=O)cc2)C1 (single isomer, unassigned) [SC-142]

OUT:
1: > 95%; 2: 75 to 95%
